Consider the following molecules; for each one, report its pKi.
# system_name: human FLAP (Homo sapiens (Human), UniProt P20292)
# Sequence (P20292 whole entry): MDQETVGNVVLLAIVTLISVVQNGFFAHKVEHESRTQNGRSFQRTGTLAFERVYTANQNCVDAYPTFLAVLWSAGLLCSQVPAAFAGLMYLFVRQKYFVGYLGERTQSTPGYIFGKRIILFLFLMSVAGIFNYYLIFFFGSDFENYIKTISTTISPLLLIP
# test: FLAP binding assay (HTRF)
# condition_info: human FLAP-containing membranes, HTRF format; average of two assay plates, duplicates; read-out: FLAP Binding wild type HTRF Ki
Where a name gives a salt, the structure may show the parent alone.
Answers are plain numbers, as −log10 of the molar value.

Example cases with answers are listed next.
molecule="Nc1cnc(-c2ccc(C3CCC3)c(OCC(O)CO)c2F)cn1 (racemic) [Example 254]" system_name="human FLAP (Homo sapiens (Human), UniProt P20292)" value_measured=6.00
molecule="CC(C)(C)OC(=O)N1CC(COc2c(C3CCC3)ccc(-c3cnc(N)cn3)c2F)C1 [Example 246]" system_name="human FLAP (Homo sapiens (Human), UniProt P20292)" value_measured=7.01
molecule="Oc1c(C2CCC2)ccc(-c2cc3cc[nH]c3nn2)c1F [Example 221]" system_name="human FLAP (Homo sapiens (Human), UniProt P20292)" value_measured=6.23
molecule="CC(C)CNc1nccc(Oc2c(C3CCC3)ccc(-c3cnc(N)cn3)c2F)n1 [Example 261, trifluoroacetic acid salt]" system_name="human FLAP (Homo sapiens (Human), UniProt P20292)" value_measured=8.89
molecule="Nc1cnc(-c2ccc(C3CCC3)c(OCC(=O)O)c2F)cn1 [Example 50]" system_name="human FLAP (Homo sapiens (Human), UniProt P20292)" value_measured=5.82

Batch request: pKi per item, same order as input.
1. CC(C)c1ccc(-c2cnc(N)cn2)c(F)c1Oc1ncccn1 [Example 318]
2. N#CCOc1c(C2CCC2)ccc(-c2cnc(N)cn2)c1F [Example 276]
3. Nc1cnc(-c2ccc(C3CCC3)c(OCC3CCCCC3)c2F)cn1 [Example 71]

Solution:
1: 7.24; 2: 7.41; 3: 6.21

Problem: Please state recorded pKi (tested on human FLAP (Homo sapiens (Human), UniProt P20292)) of COc1cc(Oc2c(C3CCC3)ccc(-c3cnc(N)cn3)c2F)ncn1 [Example 97]
Solution: 7.49
